- target-or-test-system: T1, human LIV-1 (human, UniProt Q13433 29-755)
- T1 construct: whole, on cells; also called H-LIV1
- T1 sequence (looked up): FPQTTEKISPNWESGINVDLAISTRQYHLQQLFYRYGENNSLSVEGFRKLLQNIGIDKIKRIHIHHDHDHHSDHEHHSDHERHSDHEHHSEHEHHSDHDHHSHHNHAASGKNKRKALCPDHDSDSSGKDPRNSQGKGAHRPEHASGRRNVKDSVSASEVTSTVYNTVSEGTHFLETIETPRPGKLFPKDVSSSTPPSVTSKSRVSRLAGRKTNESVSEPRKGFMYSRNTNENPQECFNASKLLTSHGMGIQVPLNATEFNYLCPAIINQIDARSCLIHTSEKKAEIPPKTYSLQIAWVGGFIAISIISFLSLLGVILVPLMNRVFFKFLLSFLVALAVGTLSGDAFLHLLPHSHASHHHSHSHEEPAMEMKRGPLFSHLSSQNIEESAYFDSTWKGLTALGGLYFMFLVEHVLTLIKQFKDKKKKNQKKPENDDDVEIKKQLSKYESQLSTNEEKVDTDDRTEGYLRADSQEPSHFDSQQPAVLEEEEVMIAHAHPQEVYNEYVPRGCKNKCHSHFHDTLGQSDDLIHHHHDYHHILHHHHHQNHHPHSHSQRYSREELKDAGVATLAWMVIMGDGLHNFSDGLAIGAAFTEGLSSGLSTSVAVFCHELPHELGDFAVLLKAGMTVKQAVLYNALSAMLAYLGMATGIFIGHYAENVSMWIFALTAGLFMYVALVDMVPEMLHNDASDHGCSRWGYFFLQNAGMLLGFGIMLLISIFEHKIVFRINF
- assay-method-text: FACS, HEK293/H_LIV-1 cells
test-readout: Top (MFI)
Enter your answer as a number in MFI; do not include the unit.

binder	unit-name	Top (MFI)
94C4B9 (antibody, V domains shown, Tested as chimeric antibody) VH: EVQLQQSGTVLARPGASVKMSCKASGYTFINYWMHWVKQRPGQGLEWIGAFYPGNSDTSYNQKFKDKAKLTAVTSTSTAYMEFSSLTNEDSAVYYCTRDFTAVPYFDYWGQGTTLTVSS VL: DILMTQTPLSLPVSLGDQASISCRSSQSIVHSNGNTYLEWYLQKPGQSPKLLIYKVSNRFSGVPDRFSGSGSGTDFTLKISRVEAEDLGVYYCFQGSYVPLTFGVGTKLELK	MFI	11600
248H1G3 (antibody, V domains shown, Tested as chimeric antibody) VH: EVQLQQSGPELMKRGASVKISCKTSTFTFTEFTIHWVKQSHGKSLEWIGGINPNTGGTSYNQNFTGKATLTVDKSSITAYMELRSLTSEDSAIYYCAPNWDGYWFFDVWGAGTTVTVSS VL: DIQMTQSPASLSASVGETVTITCRASGNIQNYLAWYQQKQGKSPQLLVYGAKTLADGVPSRFSGSGSGTQFSLKINSLQPEDFGSYYCQHFWSPPLTFGAGTKLELK	MFI	9640

Then this binder:
### Prompt Please give measured Top (MFI) of the following entry: 112H11C12 (antibody, V domains shown, Tested as chimeric antibody; also called 112H1C12) VH: QVQLQQPGAELVRPGASVKLSCKASGYTFTSYWMNWVKQRPGQGLKWIGMIDPSNSKTHYNQMFKDKATLTVDKSSNTAYMQLSSLTSEDSAVYYCARTSTTMATFAYWGQGTLVSVSA VL: DVLMTQTPLSLPVSLGDQASISCRSSQSIVHSNGNTYLEWYLQKPGQSPKLLIYKVSNRFSGVPDRFSGSGSGTDFTLKISRVEAEDLGVYYCFQASHFPLTFGAGTELDLN
### Response 8800
